- System: 519858-162-T-J1-PDC complex spheroid growth, % test/control;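 further: seven day drug exposure begun three days after spheroid seeding; 100% = DMSO vehicle wells and lower values mean less viable spheroid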
- protocol notes: Anticancer human tumor 519858-162-T-J1-PDC patient-derived colon adenocarcinoma cell line growth inhibition [Asc]
- conditions: second compound 0.3 µM; first compound 0.00316 µM; stronger effect = lower value
assay endpoint: viability, T/C

Problem: // returns reported viability, T/C for input CNC(C)C(=O)NC1CN(S(=O)(=O)c2cccc(S(=O)(=O)N3CCC4CCC(C(=O)NC(c5ccccc5)c5ccccc5)N4C(=O)C(NC(=O)C(C)NC)C3)c2)CCC2CCC(C(=O)NC(c3ccccc3)c3ccccc3)N2C1=O (stereo unspecified) + CCN1C(C(=O)NC23CCC(C(=O)O)(CC2)CC3)C(c2cccc(Cl)c2F)C2(C(=O)Nc3cc(Cl)ccc32)C12CCCCC2
Solution: 94.6%

Problem: // returns reported viability, T/C for input NC1CCC(NC2CC2c2ccccc2)CC1 (stereo unspecified) + CCN1C(C(=O)NC23CCC(C(=O)O)(CC2)CC3)C(c2cccc(Cl)c2F)C2(C(=O)Nc3cc(Cl)ccc32)C12CCCCC2
Solution: 99.6%

Problem: // returns reported viability, T/C for input COc1c(OCCCN2CCOCC2)ccc2c3n(c(=NC(=O)c4cnc(N)nc4)nc12)CCN3 + CCN1C(C(=O)NC23CCC(C(=O)O)(CC2)CC3)C(c2cccc(Cl)c2F)C2(C(=O)Nc3cc(Cl)ccc32)C12CCCCC2
Solution: 89.8%

Problem: // returns reported viability, T/C for input O=C(c1ccc(F)c(F)c1Nc1ccc(I)cc1F)N1CC(O)([C@@H]2CCCCN2)C1 + CCN1C(C(=O)NC23CCC(C(=O)O)(CC2)CC3)C(c2cccc(Cl)c2F)C2(C(=O)Nc3cc(Cl)ccc32)C12CCCCC2
Solution: 90.5%

Problem: // returns reported viability, T/C for input CCN1CCN(Cc2ccc(Nc3ncc(F)c(-c4cc(F)c5nc(C)n(C(C)C)c5c4)n3)nc2)CC1 + CCN1C(C(=O)NC23CCC(C(=O)O)(CC2)CC3)C(c2cccc(Cl)c2F)C2(C(=O)Nc3cc(Cl)ccc32)C12CCCCC2
Solution: 97.6%

Problem: // returns reported viability, T/C for input Cn1ncnc1[C@H]1c2n[nH]c(=O)c3cc(F)cc(c23)N[C@@H]1c1ccc(F)cc1 + CCN1C(C(=O)NC23CCC(C(=O)O)(CC2)CC3)C(c2cccc(Cl)c2F)C2(C(=O)Nc3cc(Cl)ccc32)C12CCCCC2
Solution: 93.7%
